Property: target mRNA inhibition; scope: individual sequences
Molecular target: IRF5
Conditions: ASO, KARPAS-229, 4 µM
After the bases stand the sugars from the 5' end (letter, count) and the backbone: PS all phosphorothioate, else s phosphorothioate and o phosphodiester by linkage. Methylation of C is not given here. e = 2'-O-(2-methoxyethyl) (MOE); k = constrained ethyl (cEt); d = 2'-deoxy (DNA)
Please give the number followed by its unit.

1. GGAAGTGAGTCTCAAA (sugars k2 d9 e3 k2, PS); 32%

Write down the reported target mRNA inhibition of AGGTTCTTGGACTCTC (sugars k3 d9 k3 e1, PS) , test system: IRF5.
19%

Under IRF5: target mRNA inhibition value of GTCTGGCCCTTTTGGA (sugars k3 d9 k3 e1, PS) ?
0%

Please state recorded target mRNA inhibition (tested on IRF5) of CGGTCTTTGAGGTCTG (sugars kdddddddddkekeke, PS)
40%

Kindly state the measured target mRNA inhibition obtained for AGTCATGGGCGTGAGGC (sugars kdddddddddkekeked, PS) with IRF5.
17%

Fill in the recorded target mRNA inhibition for this sequence, with IRF5 as test system: GTGTATTTCCCTGTCT (sugars kkddddddddddkeke, PS)
0%

Param readout= target mRNA inhibition; system= IRF5; entry= CCAATGCAACATCCAT (sugars kkddddddddddkeke, PS) ; returns value.
0%

What reported target mRNA inhibition corresponds to GGTGTATTTCCCTGTC (sugars kddddddddddkekek, PS) on IRF5?
0%

Please tell me: target mRNA inhibition of GGAAGTGAGTCTCAAA (sugars kkddddddddkekekk, PS) , system IRF5?
36%

# query: target mRNA inhibition | item CAGGTTCTTGGACTCT (sugars kkdddddddddkekek, PS) | system: IRF5
0%

Find the measured target mRNA inhibition: item ATGAGTCATGGGCTGA (sugars kkkddddddddkdkdk, PS) , target or system IRF5.
0%
